Biological target: recombinant human PREP (Homo sapiens)
Construct: purchased R&D System
Sequence (P48147 1-710): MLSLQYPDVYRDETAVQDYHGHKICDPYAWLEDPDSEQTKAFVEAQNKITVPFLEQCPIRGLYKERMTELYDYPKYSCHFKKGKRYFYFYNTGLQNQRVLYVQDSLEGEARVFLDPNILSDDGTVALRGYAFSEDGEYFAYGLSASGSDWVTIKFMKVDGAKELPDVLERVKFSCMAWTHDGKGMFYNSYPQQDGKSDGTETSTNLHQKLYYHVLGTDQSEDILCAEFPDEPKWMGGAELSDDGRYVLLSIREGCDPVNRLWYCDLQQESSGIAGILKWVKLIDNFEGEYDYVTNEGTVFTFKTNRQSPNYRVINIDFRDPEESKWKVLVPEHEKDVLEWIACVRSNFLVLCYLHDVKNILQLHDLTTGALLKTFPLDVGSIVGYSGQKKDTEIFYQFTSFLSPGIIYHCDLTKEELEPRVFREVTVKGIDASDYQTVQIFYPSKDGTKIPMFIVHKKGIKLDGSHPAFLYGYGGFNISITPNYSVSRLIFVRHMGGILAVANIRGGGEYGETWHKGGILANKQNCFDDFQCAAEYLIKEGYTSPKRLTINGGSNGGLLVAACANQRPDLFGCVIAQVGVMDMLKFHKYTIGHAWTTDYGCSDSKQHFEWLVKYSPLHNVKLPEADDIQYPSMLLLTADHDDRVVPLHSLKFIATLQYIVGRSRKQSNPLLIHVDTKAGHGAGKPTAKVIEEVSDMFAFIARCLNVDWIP
Assay: PREP inhibition, fluorogenic substrate Z-Gly-Pro-AMC
Type: biochemical
Conditions: Inhibitory Activity (IC50, nM) PREP, recombinant human PREP
Readout label: IC50 (nM)
Return type: number; implicit unit nM.

Use the examples below as a reference point.
// field: IC50; key: N#C[C@@H]1C[C@H](F)CN1C(=O)CN1CCC(Nc2ccc([N+](=O)[O-])c3cnccc23)CC1 [Example 356] ; value = 4980

// IC50 value for N#C[C@@H]1CCCN1C(=O)CN1CC[C@H](Nc2ccc(OCc3ccccc3)c3ncccc23)C1 [Example 248] : 6160

Further cases:
IC50 for N#C[C@@H]1C[C@H](F)CN1C(=O)CN1CC[C@H](Nc2cc(C(F)(F)F)c3ncccc3c2)C1 [Example 280] is 970

Value of measured IC50 for the entry N#C[C@@H]1C[C@H](F)CN1C(=O)CN1CC[C@H](Nc2cccc3ncc(Cl)cc23)C1 [Example 256] : 603

In plain terms, Cc1cc(OC2CCN(CC(=O)N3C[C@@H](F)C[C@H]3C#N)CC2)c2ccccc2n1 [Example 436] has a documented IC50 of 555

# IC50 (molecule: COc1ccc2nccc(OC3CCN(CC(=O)N4CCC[C@H]4C#N)CC3)c2c1 [Example 426] ) is 10800

Reported IC50 ( N#C[C@@H]1CCCN1C(=O)CN1CCC(Nc2ccc(C(=O)Nc3ccccn3)c3ncccc23)CC1 [Example 399] ) = 627

get_value(item= COc1ccc2nc(C(F)(F)F)cc(OC3CCN(CC(=O)N4C[C@@H](F)C[C@H]4C#N)CC3)c2c1 [Example 414] , readout=IC50) returns 57500

Given item N#C[C@@H]1C[C@H](F)CN1C(=O)CN1CC[C@H](Nc2cc(F)cc3ncccc23)C1 [Example 269] , the value recorded as its IC50 is 2310

Measured IC50, CN(C(=O)c1ccc(N[C@H]2CCN(CC(=O)N3C[C@@H](F)C[C@H]3C#N)C2)c2cccnc12)c1ccccc1 [Example 284] : 574

Record N#C[C@@H]1C[C@H](F)CN1C(=O)CN1CCC(Nc2cccc3cnc(Cl)cc23)CC1 [Example 352] , field IC50: 10700

The reported value for N#C[C@@H]1C[C@H](F)CN1C(=O)CN1CCC(Nc2ccnc3ccc(F)cc23)CC1 [Example 337] in terms of IC50 is 2540

get_value(item= N#C[C@@H]1C[C@H](F)CN1C(=O)CN1CC[C@H](Nc2ccc(OC(F)(F)F)c3ncccc23)C1 [Example 266] , readout=IC50) returns 3170

The measured IC50 associated with N#C[C@@H]1CCCN1C(=O)CN1CC[C@H](Nc2c(F)ccc3ncccc23)C1 [Example 241] reads 13000

Quick note, IC50 for N#C[C@@H]1CCCN1C(=O)CN1CCC(Nc2ccc(C(=O)Nc3ccccc3)c3ncccc23)CC1 [Example 396] landed at 1770
